# Tested on: HeLa
# Experiment summary: Cytotoxicity against human HeLa cells after 48 hrs by MTT assay
# Format: functional, cell-based
Hi there, I'd appreciate the recorded IC50 for every entry that follows.

In the examples that follow, each entry is paired with its recorded IC50.
- Compound smiles: "Cc1cccc(C)c1/C=C/[C@](C)(O)CC[C@@H]1[C@@]2(C)CCCC(C)(C)[C@@H]2CC[C@@]1(C)O"
  IC50: "3.46 µM"
- Compound smiles: "COc1cccc(OC)c1/C=C/[C@](C)(O)CC[C@@H]1[C@@]2(C)CCCC(C)(C)[C@@H]2CC[C@@]1(C)O"
  IC50: "48.2 µM"

Kindly give each listed record's IC50.
1. CC1(C)CCC[C@]2(C)[C@@H](CC[C@@](C)(O)/C=C/c3ccc(Oc4ccccc4)cc3)[C@](C)(O)CC[C@@H]12
2. CC1(C)CCC[C@]2(C)[C@@H](CC[C@@](C)(O)/C=C/c3cncc4ccccc34)[C@](C)(O)CC[C@@H]12
3. CC1(C)CCC[C@]2(C)[C@@H](CC[C@@](C)(O)/C=C/c3cccc([N+](=O)[O-])c3)[C@](C)(O)CC[C@@H]12

1. 3.48 µM
2. 46 µM
3. 3.38 µM
